test system: SARS-CoV-2-NLuc in A549-hACE2 cells; assay: microbe, parasite or virus in culture; assay type: cell-based; details: Severe acute respiratory syndrome coronavirus 2, 48 h; read-out: MPro EC50
measurement.label: pEC50
Lab note — pEC50 values are minus log10 of concentrations in M.

| compound | pEC50 |
| --- | --- |
| COc1cc(-c2cc3[nH]c(=O)n([C@@H]4CCCNC(=O)C4)c(=O)c3o2)c(Cl)cc1F | 6.19 |
| Cn1cc(-c2cccc(Cl)c2-c2cc3[nH]c(=O)n(C4CCNC(=O)C4)c(=O)c3s2)c(C(F)(F)F)n1 (stereo not shown) | 6.12 |

Moving on to the next compound.
Please tell me: pEC50 of COc1cc(-c2cc3[nH]c(=O)n(C4CCNC(=O)C4)c(=O)c3s2)c(Cl)cc1F (stereo not shown) , system SARS-CoV-2-NLuc in A549-hACE2 cells? 6.50

###

tested on: SARS-CoV-2-NLuc in A549-hACE2 cells; test: microbe, parasite or virus in culture; format: cell-based; conditions: Severe acute respiratory syndrome coronavirus 2, 48 h; read-out: MPro EC50
measurement.label: pEC50
Lab note — pEC50 values are minus log10 of concentrations in M.

Solved entries:
| compound | target.of.assay | pEC50 |
| --- | --- | --- |
| COc1cc(-c2cc3[nH]c(=O)n([C@H]4CCCNC(=O)C4)c(=O)c3s2)c(Cl)cc1F | SARS-CoV-2-NLuc in A549-hACE2 cells | 7.29 |
| COc1cnc(Cl)c(-c2cc3[nH]c(=O)n([C@@H]4CCCNC(=O)C4)c(=O)c3s2)c1 | SARS-CoV-2-NLuc in A549-hACE2 cells | 6.36 |
| COc1ccc(Cl)c(-c2cc3[nH]c(=O)n([C@H]4CCNC(=O)C4)c(=O)c3s2)c1 | SARS-CoV-2-NLuc in A549-hACE2 cells | 7.07 |
| COc1cc(-c2cc3c(s2)c(=O)n([C@@H]2CCCNC(=O)C2)c(=O)n3C)c(Cl)cc1F | SARS-CoV-2-NLuc in A549-hACE2 cells | 7.81 |

Reported pEC50 for COc1cc(-c2cc3c(s2)c(=O)n([C@H]2CCCNC(=O)C2)c(=O)n3C)c(Cl)cc1F : what is it? 6.13

Same question for O=C1CC(n2c(=O)[nH]c3cc(-c4ccccc4Cl)sc3c2=O)CCCN1 (stereo not shown) please. 7.21

Same question for O=C1C[C@H](n2c(=O)[nH]c3cc(-c4ccccc4Cl)sc3c2=O)CCN1 please. 6.01

Same question for COc1cc(-c2cc3[nH]c(=O)n([C@@H]4CCCNC(=O)C4)c(=O)c3s2)c(Cl)cc1Cl please. 7.56

Same question for COc1cc(-c2cc3c(s2)c(=O)n([C@@H]2CCCNC(=O)C2)c(=O)n3CCNC(C)=O)c(Cl)cc1F please. 6.77

Same question for COc1ccc(C#N)c(-c2cc3[nH]c(=O)n([C@H]4CCNC(=O)C4)c(=O)c3s2)c1 please. 5.67

Same question for COc1cc(-c2cc3[nH]c(=O)n(C4CC(=O)NCC(C)(C)C4)c(=O)c3s2)c(Cl)cc1F (stereo not shown) please. 6.99

Same question for COc1cc(-c2cc3[nH]c(=O)n([C@@H]4CCCNC(=O)C4)c(=O)c3cc2OC)c(C#N)cc1F please. 6.10

Every entry's value here was drawn from patent US20250276979A1.
